Reported pIC50 by item:
Molecular target: T1, human IL-1α (human, UniProt P01583 113-271)
T1 construct: also called IL-1alpha; hIL-1α
T1 sequence (looked up): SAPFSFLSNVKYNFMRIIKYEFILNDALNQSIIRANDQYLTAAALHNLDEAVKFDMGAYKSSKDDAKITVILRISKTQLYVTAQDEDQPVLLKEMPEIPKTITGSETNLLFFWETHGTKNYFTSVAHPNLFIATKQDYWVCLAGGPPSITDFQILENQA
Assay: Table 62 IC50; RBA presumed
Reminder that pIC50 means the negative base-10 logarithm of the concentration expressed in mol/L.

Completed entries (count: 2):
| binder | pIC50 |
| --- | --- |
| ABT1-95-65 (other, VK dAb) VL: DIQMTQSPSSLSASVGDRVTITCRASQPIVRNLRWYQQKPGKAPKLLIYGSSYLEPGVPSRFSGSGSGTDFTLTISSLQPEDFATYHCQQGYRWPVTFGQGTKVEIKR | 9.70 |
| ABT1-95-147 (other, VK dAb) VL: DIQMTQSPSSLSASVGDRVTITCWASQGIVRNLRWYQQKPGKAPKLLIYSSSYLEPGVPSRFSGSGSGTDFTLTISSLQPEDFATYHCQQGYRWPVTFGQGTKVEIKR | 9.70 |

Turning to the following binder.
// query Read the entry ABT1-157 (other, VK dAb) VL: DIQMTQSPSSLSASVGDRVTITCRASQSISSYLNWYQQKPGKAPKLLIGGVSGLQSGVPSRFSGSGSGTDFTLTISSLQPEDFATYYCMQWSRPPRTFGQGTKVEIKR and write its reported pIC50.
// result 6.52
